Data provenance: patent US10364256B2

IC50 listing for selected compounds.
Target: full length Keap1 protein / full length NRF2 protein (Homo sapiens, UniProt Q14145)
Construct: full length NRF2 protein and full length Keap1 protein (Keap1 exists a dimer) are used; His
Sequence (Q14145 whole entry): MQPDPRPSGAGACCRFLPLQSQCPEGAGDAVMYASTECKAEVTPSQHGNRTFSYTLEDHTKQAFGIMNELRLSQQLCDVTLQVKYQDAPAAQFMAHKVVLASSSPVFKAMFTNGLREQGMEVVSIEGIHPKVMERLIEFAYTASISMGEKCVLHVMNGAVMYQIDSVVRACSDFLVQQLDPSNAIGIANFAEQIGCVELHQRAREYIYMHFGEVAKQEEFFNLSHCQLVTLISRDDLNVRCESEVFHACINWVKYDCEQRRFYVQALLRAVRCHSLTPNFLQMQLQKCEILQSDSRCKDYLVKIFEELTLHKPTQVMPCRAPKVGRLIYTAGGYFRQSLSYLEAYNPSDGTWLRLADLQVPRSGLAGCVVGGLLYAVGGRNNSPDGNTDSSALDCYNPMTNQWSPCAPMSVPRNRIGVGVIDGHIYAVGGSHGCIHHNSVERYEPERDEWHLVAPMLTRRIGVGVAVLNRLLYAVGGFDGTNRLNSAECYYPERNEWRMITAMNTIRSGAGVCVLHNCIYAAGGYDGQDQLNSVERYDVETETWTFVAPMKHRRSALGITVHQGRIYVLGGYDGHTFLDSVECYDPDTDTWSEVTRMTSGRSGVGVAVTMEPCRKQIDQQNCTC
Test: NRF2-Keap1 TR-FRET Low Protein Assay
Format: binding
Conditions: 1.25 nM Keap1 FlagHis and 2.5 nM biotin-NRF2 added

# compound, IC50
rows = [
    ("CC(CC1CCCCC1)Oc1cccc(-c2cccc(-n3ncc(C(=O)O)c3C3CC3)c2)c1 (stereo not shown)", "1 to 10 µM"),
    ("CC[C@@H]1CN(C(=O)c2cccc(-c3cccc(-n4ncc(C(=O)O)c4[C@@H]4C[C@H]4c4cn(C)nn4)c3)c2)Cc2ccccc2O1", "< 0.01 µM"),
    ("CCc1nc(-c2cccc(-c3cccc(-n4ncc(C(=O)O)c4C4CC4)c3)c2)no1", "1 to 10 µM"),
]

// next entry
**Query** Which IC50 value is on record for Cn1cc([C@H]2C[C@@H]2c2c(C(=O)O)cnn2-c2cccc(-c3cccc(C(=O)N4CCCCC4)c3F)c2)nn1 (racemic) ?
**Result** < 0.01 µM

---

Target: Keap1 Kelch domain (321-609) / TAMRA-labeled 16mer NRF2 peptide (ETGE motif) (Homo sapiens)
Construct: the Kelch domain (321-609) of Keap1 is used
Sequence (Q14145 321-609): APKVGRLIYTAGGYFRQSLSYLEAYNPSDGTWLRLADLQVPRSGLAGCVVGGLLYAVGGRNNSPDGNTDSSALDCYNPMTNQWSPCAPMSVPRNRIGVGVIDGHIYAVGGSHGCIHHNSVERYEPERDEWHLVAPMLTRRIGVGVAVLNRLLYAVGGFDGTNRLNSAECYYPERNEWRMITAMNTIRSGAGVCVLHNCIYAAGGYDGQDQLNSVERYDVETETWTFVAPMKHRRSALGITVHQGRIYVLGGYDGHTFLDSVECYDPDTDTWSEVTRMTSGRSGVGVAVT
Experiment: NRF2-Keap1 FP Assay (Keap1 Kelch fluorescence polarization)
Settings: 20 nM Keap1 (321-609), 8 nM Tamra labeled peptide
This listing pairs compounds with measured IC50.

# compound, IC50
data = [
    ("Cn1cc([C@@H]2C[C@H]2c2c(C(=O)O)cnn2-c2cccc(-c3cccc(OCC4CCCCC4)c3F)c2)nn1 (racemic)", "10 to 100 nM"),
    ("Cn1cc(C2CC2c2c(C(=O)O)cnn2-c2cccc(-c3cccc(OCC4CCCOC4)c3)c2)nn1 (stereo not drawn)", "100 to 1000 nM"),
    ("Cn1cnc(C2CC2c2c(C(=O)O)cnn2-c2cccc(-c3cccc(OCC4CCCCC4)c3)c2)c1 (stereo not drawn)", "1000 to 10000 nM"),
    ("CC(C)Oc1cccc(-c2cccc(-n3ncc(C(=O)O)c3C3CC3c3cn(C)nn3)c2)c1F (stereo not drawn)", "100 to 1000 nM"),
    ("C[C@H](Oc1cccc(-c2cccc(-n3ncc(C(=O)OC4CCOC4=O)c3[C@@H]3C[C@H]3c3cn(C)nn3)c2)c1)C1CCCCC1 (stereo partly drawn)", "> 10000 nM"),
]

**Query** Reported IC50 for Cn1cc([C@@H]2C[C@H]2c2c(C(=O)O)cnn2-c2cccc(-c3cccc(OCCC4CCCCC4)c3)c2)nn1 (racemic) : what is it?
**Result** 10 to 100 nM

---

Biological target: full length Keap1 protein / full length NRF2 protein (Homo sapiens, UniProt Q14145)
Construct: full length NRF2 protein and full length Keap1 protein (Keap1 exists a dimer) are used; His
Test: NRF2-Keap1 TR-FRET Low Protein Assay
Assay type: binding
Details: 1.25 nM Keap1 FlagHis and 2.5 nM biotin-NRF2 added
pIC50: −log10 of the molar value.
experimental.readout: pIC50

Worked examples, 3 compounds total:
# compound, pIC50
records = [
    ("C[C@@H]1CCC[C@H](C)N1C(=O)c1cccc(-c2cccc(-n3ncc(C(=O)O)c3[C@H]3C[C@@H]3c3cn(C)nn3)c2)c1F (single isomer, unassigned)", "> 8.00"),
    ("C[C@@H]1CN(Cc2cccc(-c3cccc(-n4ncc(C(=O)O)c4[C@@H]4C[C@H]4c4cn(C)nn4)c3)c2)Cc2ccccc2O1", "> 8.00"),
    ("CC(Oc1ccc(-c2cccc(-n3ncc(C(=O)O)c3[C@H]3C[C@@H]3c3cn(C)nn3)c2)cc1)C1CCCCC1 (mixture of isomers)", "< 4.00"),
]

**Query** Entry under review: Cn1cc(C2CC2c2c(C(=O)O)cnn2-c2cccc(-c3cccc(OC4CCOCC4)c3F)c2)nn1 (stereo not drawn) . Reported pIC50?
**Result** 7.00 to 8.00

**Query** Look up pIC50 for this compound: CCCC1CCCCN1C(=O)c1cccc(-c2cccc(-n3ncc(C(=O)O)c3C3CC3)c2)c1F (stereo not drawn) [Example 17]
**Result** 7.00 to 8.00

**Query** What value of pIC50 has been recorded for this entry: COC(CC1CCCCC1)c1cccc(-c2cccc(-n3ncc(C(=O)O)c3C3CC3c3cn(C)nn3)c2)c1 (stereo not drawn)
**Result** 7.00 to 8.00
